Values from patent US20220332795A1

# system.under.test: T1, recombinant biotinylated CD71 extracellular domain (Sino Biologics) with an N-terminal 6His tag (human, UniProt P02786 89-760, biotinylated (site not stated))
# T1 construct: extracellular domain; also called hCD71; huCD71 ECD
# protocol: primary solution ELISA screen, signal on hCD71 over HSA
Lab note: compare hCD71:HSA against 100. Equal or greater, write 1 (yes). Smaller, write 0 (no).

Ask | Hi, just wondering whether SEQ ID NO 44 (designed binder, not shown: small tags and cut ends, FN3 domain, hit of the apical domain panning) MLPAPKNLVVSRVTEDSARLSWTAPDAAFDSFFIPYAEPSPTGEAIVLTVPGSERSYDLTGLKPGTEYSVLIHGVKGGHLSDPLSAIVTT shows hCD71:HSA of 100 or higher.
Reply | 0 (no)

---
Ask | Hi, just wondering whether SEQ ID NO 41 (designed binder, not shown: small tags and cut ends, FN3 domain, hit of the apical domain panning) MLPAPKNLVVSRVTEDSARLSWQGVARAFDSFLITYREQIFAGEVIVLTVPGSERSYDLTGLKPGTEYPVWIQGVKGGHLSDPLSAIVTT shows hCD71:HSA of 100 or higher.
Reply | 0 (no)

Ask | Hi, just wondering whether SEQ ID NO 62 (designed binder, not shown: small tags and cut ends, FN3 domain, hit of the apical domain panning) MLPAPKNLVVSRVTEDSARLSWTAPDAAFDSFKIRYTETRSIGEAIVLTVPGSERSYDLTGLKPGTEYCVPIGGVKGGDSSWPLSAISTT shows hCD71:HSA of 100 or higher.
Reply | 0 (no)

Ask | Hi, just wondering whether SEQ ID NO 30 (designed binder, not shown: small tags and cut ends, FN3 domain, hit of the apical domain panning) MLPAPKNLVVSRVTEDSARLSWTAPDAAFDSFIIHYVEQQLIGEAIVLTVPGSERSYDLTGLKPGTEYPVPITGVKGGACSWPLSAIFTT shows hCD71:HSA of 100 or higher.
Reply | 0 (no)

Ask | Hi, just wondering whether SEQ ID NO 82 (designed binder, not shown: small tags and cut ends, FN3 domain, hit of the apical domain panning) MLPAPKNLVVSRVTEDSARLSWTAPDAAFDSFLIPYAETSPSGEAIVLTVPGSERSYDLTGLKPGTEYSVLIHGVKGGDYSSPLSAIFTT shows hCD71:HSA of 100 or higher.
Reply | 1 (yes)

Ask | Hi, just wondering whether SEQ ID NO 83 (designed binder, not shown: small tags and cut ends, FN3 domain, hit of the apical domain panning) MLPAPKNLVVSRVTEDSARLSWTAPDAAFDSFPIAYAEPRPDGEAIVLTVPGSERSYDLTGLKPGTEYSVLIHGVKGGLLSSPLSAISTT shows hCD71:HSA of 100 or higher.
Reply | 0 (no)

Ask | Hi, just wondering whether SEQ ID NO 22 (designed binder, not shown: small tags and cut ends, FN3 domain, hit of the apical domain panning) MLPAPKNLVVSRVTEDSARLSWTAPDAAFDSFWYLELQFAGEAIVLTVPGSERSYDLTGLKPGTEYNVPITGVKGGIISFPLSAIFTT shows hCD71:HSA of 100 or higher.
Reply | 1 (yes)

Ask | Hi, just wondering whether SEQ ID NO 39 (designed binder, not shown: small tags and cut ends, FN3 domain, hit of the apical domain panning) MLPAPKNLVVSRVTEDSARLSWTAPDAAFDSFPIPYTEPPDPGEAIVLTVPGSERSYDLTGLKPGTEYLVTILGVKGGSMSVPLSAIFTT shows hCD71:HSA of 100 or higher.
Reply | 0 (no)
